Cited source for all entries: patent US20250270343A1

Quick reference for MFI fold over background among some binders
# assayed-target: T1, full-length untagged human GPNMB expressed on cells (human, UniProt Q14956 23-572)
# T1 construct: also used here for GPNMB on human monocyte-derived macrophages in the functional assays; also called huGPNMB; Freestyle293-huGPNMB+
# T1 sequence: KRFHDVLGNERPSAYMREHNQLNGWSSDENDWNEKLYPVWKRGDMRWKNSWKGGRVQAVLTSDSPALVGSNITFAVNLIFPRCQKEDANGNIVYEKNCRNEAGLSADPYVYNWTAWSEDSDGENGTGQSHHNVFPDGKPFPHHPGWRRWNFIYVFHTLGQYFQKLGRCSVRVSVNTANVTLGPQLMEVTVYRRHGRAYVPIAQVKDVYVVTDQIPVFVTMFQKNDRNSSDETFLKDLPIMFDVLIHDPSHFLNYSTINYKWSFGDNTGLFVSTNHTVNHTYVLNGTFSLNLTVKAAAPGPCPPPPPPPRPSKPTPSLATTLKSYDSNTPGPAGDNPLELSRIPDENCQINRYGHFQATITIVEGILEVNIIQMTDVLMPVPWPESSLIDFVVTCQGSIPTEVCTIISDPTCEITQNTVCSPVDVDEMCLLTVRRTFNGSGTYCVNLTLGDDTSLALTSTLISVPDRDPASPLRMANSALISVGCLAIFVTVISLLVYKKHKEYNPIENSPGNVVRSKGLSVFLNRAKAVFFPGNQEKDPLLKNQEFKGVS
# experimental-details: FACS, FS293-huGPNMB+ cells
assay-endpoint: MFI fold over background (fold)

| binder | measured-value |
| --- | --- |
| anti-GPNMB antibody GPN-01 (antibody, human IgG1, V domains shown, chimeric) VH: QVQLQQSGAELAKPGASVKLSCKASGYNFTNYCIHWVKQRPGQGLEWIGYINPSTGYTEYNQKFKDKATLTADKSSTTAYMQLSSLTSEDSAVYYCARGRYDEFTYWGQGTLVTVSA VL: DIVLTQSPASLAVSLGQRATISCRASKSVSTSTYSYMHWYQQKPGQPPKLLIYLASNLESGVPARFSGSGSGTDFTLNIHPVEEEDAATYYCQHSRELPPTFGGGTKLEIK | 43.2 |
| anti-GPNMB antibody GPN-31 (antibody, human IgG1, V domains shown, chimeric) VH: EVQLQQSGPELVKPGASVKISCKASGYSFTGYYMNWVKQSPEKNLEWIGEINPNTGGTTYNQKFKAKATLTVDKSSTTAYMQLKSLTSEDSAVYYCTRPASWFDYWGQGTLVTVSA VL: DIQMTQSPSSLSASLGERVSLTCRASQEISGHLSWLQQKPDGTIKRLIYAASTLDSGVPKRFSGRRSGSDYSLTISSLESEDFADYYCLQYASYPYTFGGGTKLAIK | 53.8 |
| anti-GPNMB antibody GPN-07 (antibody, human IgG1, V domains shown, chimeric) VH: QVQLQQSGAEQVKPGASVKLSCKASGYTFTSYYMYWVKQRPGQGLEWIGEINPSNGGTYFNEKFKSKATLTVDKSSSTAYMHLSSLTSEDSAVYYCTRGGTYYAYWGQGTLVTVSA VL: DIQMTQSPSSLSASLGERVSLTCRASQEMSGHLSWLQQKPDGTIKRLIYAASTLDSGVPKRFSGSRSGSDYSLTISSLESEDFADYYCLQYASYPYTFGGGTKLEIK | 66.5 |
